- Test system: CALML5
- protocolText: Gene expression (qPCR) in NHEK: CALML5
- Assay type: cell-based, human
- measurementParameters: 24 hours, 0.1 mM (Vitamin B12 0.03 mM), normalized to HPRT1, n.s. = not statistically significant
property: Linear Fold-Change Value, Each Group vs the Untreated Control: CALML5

{"compound": "Cc1ncc(CO)c(CO)c1O.Cl [Pyridoxine HCl]", "measuredResult": "-1.90 fold"}
{"compound": "Nc1nc2ncc(CNc3ccc(C(=O)N[C@@H](CCC(=O)O)C(=O)O)cc3)nc2c(=O)[nH]1", "measuredResult": "-1.67 fold"}
{"compound": "CC(C)(CO)[C@@H](O)C(=O)NCCCO", "measuredResult": "-1.87 fold"}
{"compound": "Cc1cc2nc3c(=O)[nH]c(=O)nc-3n(C[C@H](O)[C@H](O)[C@H](O)CO)c2cc1C", "measuredResult": "-1.24 fold"}
